assay notes: Log P (Table 3)
Assay type: physicochemical
assay context: no method given
readout label: logP

smiles_text=Nc1nc(Nc2ccccc2)sc1-c1nc2ccccc2[nH]1 readout_label=logP obs_value=3.02
smiles_text=COc1ccc(Nc2nc(N)c(-c3nc4ccccc4[nH]3)s2)cc1 readout_label=logP obs_value=2.11
smiles_text=Cc1cc(C)c(Nc2nc(N)c(-c3nc4ccccc4[nH]3)s2)c(C)c1 readout_label=logP obs_value=2.11
smiles_text=Nc1nc(Nc2ccc([N+](=O)[O-])cc2)sc1-c1nc2ccccc2[nH]1 readout_label=logP obs_value=3.32
smiles_text=Nc1nc(Nc2ccc(Cl)cc2)sc1-c1nc2ccccc2[nH]1 readout_label=logP obs_value=3.99
smiles_text=Nc1nc(Nc2ccc(Br)cc2F)sc1-c1nc2ccccc2[nH]1 readout_label=logP obs_value=3.2
smiles_text=Nc1nc(Nc2ccccc2[N+](=O)[O-])sc1-c1nc2ccccc2[nH]1 readout_label=logP obs_value=3.33

###

System: U87MG Cell line (Glioblastoma cell line)
assay notes: MTT cell proliferation assay, U87MG Cell line
Type: cell-based
assay context: Homo sapiens, U-87 MG; U87MG, 0.1 μM, 72 h, MTT
readout label: viability at 0.1 µM (%)

smiles_text=COc1ccc(Nc2nc(N)c(-c3nc4ccccc4[nH]3)s2)cc1 tested_target="U87MG Cell line (Glioblastoma cell line)" obs_value=86.5
smiles_text=Nc1nc(Nc2ccccc2)sc1-c1nc2ccccc2[nH]1 tested_target="U87MG Cell line (Glioblastoma cell line)" obs_value=32.4
smiles_text=COc1ccc(Nc2nc(N)c(-c3nc4c(C)cccc4[nH]3)s2)cc1 tested_target="U87MG Cell line (Glioblastoma cell line)" obs_value=82.9
smiles_text=Nc1nc(Nc2ccccc2[N+](=O)[O-])sc1-c1nc2ccccc2[nH]1 tested_target="U87MG Cell line (Glioblastoma cell line)" obs_value=33.2
smiles_text=Cc1ccc(Nc2nc(N)c(-c3nc4ccccc4[nH]3)s2)cc1 tested_target="U87MG Cell line (Glioblastoma cell line)" obs_value=99.9
smiles_text=Nc1nc(Nc2cccc(C(F)(F)F)c2)sc1-c1nc2ccccc2[nH]1 tested_target="U87MG Cell line (Glioblastoma cell line)" obs_value=73.8
smiles_text=Nc1nc(Nc2ccc(Cl)cc2)sc1-c1nc2ccccc2[nH]1 tested_target="U87MG Cell line (Glioblastoma cell line)" obs_value=80.6
smiles_text=Cc1ccc2[nH]c(-c3sc(Nc4cccc(C(F)(F)F)c4)nc3N)nc2c1 tested_target="U87MG Cell line (Glioblastoma cell line)" obs_value=83.7
smiles_text=Cc1ccc2[nH]c(-c3sc(Nc4ccccc4)nc3N)nc2c1 tested_target="U87MG Cell line (Glioblastoma cell line)" obs_value=75
smiles_text=Nc1nc(Nc2ccc(Br)cc2F)sc1-c1nc2ccccc2[nH]1 tested_target="U87MG Cell line (Glioblastoma cell line)" obs_value=94.9
smiles_text=COc1ccc(Nc2nc(N)c(-c3nc4cc(C)ccc4[nH]3)s2)cc1 tested_target="U87MG Cell line (Glioblastoma cell line)" obs_value=71.7
smiles_text=Nc1nc(Nc2ccc([N+](=O)[O-])cc2)sc1-c1nc2ccccc2[nH]1 tested_target="U87MG Cell line (Glioblastoma cell line)" obs_value=82.4
smiles_text=Cc1ccc(Nc2nc(N)c(-c3nc4cc(C)ccc4[nH]3)s2)cc1 tested_target="U87MG Cell line (Glioblastoma cell line)" obs_value=78.1
smiles_text=Cc1cc(C)c(Nc2nc(N)c(-c3nc4ccccc4[nH]3)s2)c(C)c1 tested_target="U87MG Cell line (Glioblastoma cell line)" obs_value=82.1
smiles_text=Cc1ccc2[nH]c(-c3sc(Nc4ccc(Cl)cc4)nc3N)nc2c1 tested_target="U87MG Cell line (Glioblastoma cell line)" obs_value=81.4

###

Tested on: HOP-62 Cell line
assay notes: MTT cell proliferation assay, HOP-62 Cell line
Type: cell-based
assay context: Homo sapiens; HOP-62, 0.1 μM, 72 h, MTT
readout label: viability at 0.1 µM (%)

smiles_text=Nc1nc(Nc2cccc(C(F)(F)F)c2)sc1-c1nc2ccccc2[nH]1 unit_annotation=% obs_value=90.8
smiles_text=Cc1ccc(Nc2nc(N)c(-c3nc4ccccc4[nH]3)s2)cc1 unit_annotation=% obs_value=101
smiles_text=Nc1nc(Nc2ccccc2)sc1-c1nc2ccccc2[nH]1 unit_annotation=% obs_value=42.1
smiles_text=Nc1nc(Nc2ccccc2[N+](=O)[O-])sc1-c1nc2ccccc2[nH]1 unit_annotation=% obs_value=36.1
smiles_text=COc1ccc(Nc2nc(N)c(-c3nc4c(C)cccc4[nH]3)s2)cc1 unit_annotation=% obs_value=98.7

###

System: A549 Cell line (Lung Cancer Cell line)
assay notes: MTT cell proliferation assay, A549 Cell line
Type: cell-based, human
assay context: Homo sapiens; A549, 5 μM, 72 h, MTT
readout label: viability at 5 µM (%)

smiles_text=Nc1nc(Nc2ccccc2[N+](=O)[O-])sc1-c1nc2ccccc2[nH]1 obs_value=25.9
smiles_text=COc1ccc(Nc2nc(N)c(-c3nc4ccccc4[nH]3)s2)cc1 obs_value=60.5
smiles_text=COc1ccc(Nc2nc(N)c(-c3nc4c(C)cccc4[nH]3)s2)cc1 obs_value=59.3
smiles_text=Cc1ccc(Nc2nc(N)c(-c3nc4ccccc4[nH]3)s2)cc1 obs_value=57.3
smiles_text=Cc1ccc2[nH]c(-c3sc(Nc4cccc(C(F)(F)F)c4)nc3N)nc2c1 obs_value=61.6

###

System: MDA-MB-436 Cell line
assay notes: MTT cell proliferation assay, MDA-MB-436 Cell line
Format: cell-based
assay context: Homo sapiens; MDA-MB-436, 5 μM, 72 h, MTT
readout label: viability at 5 µM (%)

compound=Nc1nc(Nc2ccccc2[N+](=O)[O-])sc1-c1nc2ccccc2[nH]1 obs_value=28.9
compound=Cc1ccc2[nH]c(-c3sc(Nc4ccccc4)nc3N)nc2c1 obs_value=61.4
compound=Cc1ccc2[nH]c(-c3sc(Nc4cccc(C(F)(F)F)c4)nc3N)nc2c1 obs_value=97.6
compound=Nc1nc(Nc2ccccc2)sc1-c1nc2ccccc2[nH]1 obs_value=54.6
compound=Cc1cc(C)c(Nc2nc(N)c(-c3nc4ccccc4[nH]3)s2)c(C)c1 obs_value=105
compound=Nc1nc(Nc2cccc(C(F)(F)F)c2)sc1-c1nc2ccccc2[nH]1 obs_value=97.6
compound="COc1cc2ncnc(Nc3ccc(F)c(Cl)c3)c2cc1OCCCN1CCOCC1 [Gefitinib, reference compound]" obs_value=29.3
compound=Nc1nc(Nc2ccc([N+](=O)[O-])cc2)sc1-c1nc2ccccc2[nH]1 obs_value=79.8
compound=Nc1nc(Nc2ccc(Br)cc2F)sc1-c1nc2ccccc2[nH]1 obs_value=93.8
compound=Nc1nc(Nc2ccc(Cl)cc2)sc1-c1nc2ccccc2[nH]1 obs_value=99.9
compound=Cc1ccc(Nc2nc(N)c(-c3nc4cc(C)ccc4[nH]3)s2)cc1 obs_value=99.3
